molecular target: UniProt:P04150; experiment: Displacement of radiolabeled Dexamethasone from human GR
Sequence (P04150 whole entry): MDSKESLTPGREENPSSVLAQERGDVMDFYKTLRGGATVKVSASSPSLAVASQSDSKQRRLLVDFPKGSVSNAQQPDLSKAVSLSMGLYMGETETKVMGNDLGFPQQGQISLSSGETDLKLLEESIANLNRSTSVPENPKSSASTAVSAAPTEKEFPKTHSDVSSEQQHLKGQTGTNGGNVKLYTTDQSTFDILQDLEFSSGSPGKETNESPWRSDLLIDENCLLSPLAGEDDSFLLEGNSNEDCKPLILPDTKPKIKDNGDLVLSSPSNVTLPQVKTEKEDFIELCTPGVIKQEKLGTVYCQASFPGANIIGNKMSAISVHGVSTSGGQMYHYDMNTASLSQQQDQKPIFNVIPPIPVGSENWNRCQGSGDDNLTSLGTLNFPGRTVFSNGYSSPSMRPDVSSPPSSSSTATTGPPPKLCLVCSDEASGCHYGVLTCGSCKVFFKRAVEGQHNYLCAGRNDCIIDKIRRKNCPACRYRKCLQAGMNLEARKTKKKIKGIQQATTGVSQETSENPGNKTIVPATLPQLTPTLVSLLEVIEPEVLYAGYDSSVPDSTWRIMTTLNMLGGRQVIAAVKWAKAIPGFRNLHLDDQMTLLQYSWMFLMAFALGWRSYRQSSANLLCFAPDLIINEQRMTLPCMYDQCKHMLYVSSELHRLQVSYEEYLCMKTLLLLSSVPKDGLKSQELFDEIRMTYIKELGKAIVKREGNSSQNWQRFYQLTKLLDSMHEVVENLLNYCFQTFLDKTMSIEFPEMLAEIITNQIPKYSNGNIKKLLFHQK
RECORDED_ENDPOINT: Ki (µM)
A number alone suffices; assume µM.

Problem: Return reported Ki for target or system UniProt:P04150, item `CCN1CCOc2cc3[nH]c(=O)cc(C(F)(F)F)c3cc21` .
Solution: 8.1

Problem: GET Ki | system: UniProt:P04150 | item: `O=c1cc(C(F)(F)F)c2cc3c(cc2[nH]1)OCCN3CC1CC1`
Solution: 8.8

Problem: State Ki (UniProt:P04150) of `O=c1cc(C(F)(F)F)c2cc3c(cc2[nH]1)OCCN3CC(F)(F)F` .
Solution: 9.2
